B1: VH:VL chains; a variant is named by its letters at X, in order (parent)
chain 1: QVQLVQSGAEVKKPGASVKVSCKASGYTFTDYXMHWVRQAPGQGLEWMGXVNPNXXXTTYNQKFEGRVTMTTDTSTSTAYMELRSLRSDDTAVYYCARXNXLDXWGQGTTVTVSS
chain 2: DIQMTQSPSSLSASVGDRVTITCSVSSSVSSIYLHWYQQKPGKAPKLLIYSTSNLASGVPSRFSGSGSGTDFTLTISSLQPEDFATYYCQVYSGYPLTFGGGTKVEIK

Variants of: B1
Experiment: yeast display scFab, FACS + sequencing

{"columns": ["variantLabel", "non-specific binding call"],
 "data": [
  ["YAGRTAGV", "binds"],
  ["YATEAFSD", "binds"],
  ["YAEGGYGV chain 1 V68I", "binds"]
]}

From: the emibetuzumab library of Makowski et al. (2022)
